Assign TGI to each entry below.
# Test system: SF-268 CNS
# measurement-notes: NCI tumour cell line growth inhibition, 48 h

A selection of reference data follows.
[[record]]
molecule = "COC(=O)Nc1nc2ccc(NS(=O)(=O)c3cccs3)cc2[nH]1"
readout_type = "TGI"
result = "> 100 µM"

[[record]]
molecule = "CCCCCCCCCCCCSC(=S)c1c(C)[nH]n(-c2ccccc2)c1=O"
readout_type = "TGI"
result = "> 50 µM"

[[record]]
molecule = "O=c1[nH]c(Nc2ccc(Br)c(C(F)(F)F)c2)nc2nc[nH]c12"
readout_type = "TGI"
result = "> 100 µM"

[[record]]
molecule = "CCC1=C(c2ccc(OC)cc2)C(C)(C)Oc2c1ccc(O)c2CN1CCCC1"
readout_type = "TGI"
result = "> 100 µM"

[[record]]
molecule = "CSc1cc([C@@H]2C[C@H]2c2ccc(Cl)cc2)on1"
readout_type = "TGI"
result = "46.3 µM"


Could you report TGI for every entry in the following list?
1. O=S1(=O)c2ccccc2N(O)C2=NCCN21
2. ClCc1nc2ccccc2[nH]1

a:
> 100 µM
> 100 µM

Give one value of TGI per listed molecule.
1. Oc1ccccc1-c1nn(CNc2ccc(Cl)cc2)c(=S)o1
2. CC1OC(OC2C(O)COC(OC3C(C)OC(OC4C(OC(=O)[C@]56CCC(C)(C)C[C@@H]5C5=CCC7[C@@]8(C)C[C@H](O)[C@H](OC9OC(CO)C(O)C(O)C9O)[C@@](C)(CO)[C@@H]8CC[C@@]7(C)[C@]5(C)CC6)OCC(O)C4O)C(O)C3O)C2O)C(O)C(O)C1O (stereo partly drawn)
3. CN1C(=O)CCC(N2C(=O)c3cccc(NCCOCCOCCNC(=O)c4cc5c(o4)C(=O)c4ccccc4C5=O)c3C2=O)C1=O (stereo not drawn)

a:
1. > 100 µM
2. 49.4 µM
3. 6.79 µM
